System: XIP peptide (Xip251-270) binding
protocolSummary: small-molecule binders of XIP peptide, primary screen, biochemical, small-molecule microarray, fluorescence 635/667 nm, 0.1 µg/mL protein (AID 1182)
testSettings: fluorescent protein binding, 635 nm, higher = more signal, called active from +8 up or from −8 down
Reported composite z-score values are given for each entry in this list.
measuredEndpoint: composite z-score

* CC(C)C[C@@H]1NC(=O)C([C@@H](C)OCc2ccccc2)NC(=O)[C@@]23C(=O)N[C@@H](Cc4ccccc4)C2[C@H](C)[C@@]2(C)O[C@H]2C3/C=C/CC/C=C/CNC1=O (stereo partly drawn) | -0.0755
* COc1ccc([Si](C)(C)[C@@H]2[C@@H](CCO)O[C@]3(C(=O)N(Cc4ccccc4)c4ccc(N5C(=O)c6ccccc6Oc6ccccc65)cc43)[C@H]2C)cc1 | 0.664
* O=C1c2ccccc2[C@@]2(Cc3ccccc3N(Cc3ccccc3)C2=O)[C@H](c2ccc(CO)cc2)N1Cc1ccccc1 | -0.348
